- study-system: human CA-IX (Homo sapiens, UniProt Q16790)
reported-property: IC50 (nM)
Give bare numbers, in nM.

>  <compound>
NS(=O)(=O)c1ccc(-n2ncnc2Cc2ccccc2)cc1 [Example L-1a]

>  <reported-property>
IC50

>  <units-label>
nM

>  <measured-result>
35.6

$$$$
>  <compound>
COCc1nc(Cc2cccc(Br)c2)n(-c2ccc(S(N)(=O)=O)cc2)n1 [f-3g]

>  <reported-property>
IC50

>  <units-label>
nM

>  <measured-result>
8.11

$$$$
>  <compound>
CCCN(C)Cc1nc(Cc2cccc(C)c2)n(-c2ccc(S(N)(=O)=O)cc2F)n1 [Example F-1aj]

>  <reported-property>
IC50

>  <units-label>
nM

>  <measured-result>
4.32

$$$$
>  <compound>
CCCCN(C)C(=O)c1nc(Cc2ccccc2)n(-c2ccc(S(N)(=O)=O)cc2F)n1

>  <reported-property>
IC50

>  <units-label>
nM

>  <measured-result>
2.79

$$$$
>  <compound>
NS(=O)(=O)c1ccc(-n2nc(CO)cc2Cc2ccc(Cl)cc2)cc1 [qq-3a]

>  <reported-property>
IC50

>  <units-label>
nM

>  <measured-result>
13.5

$$$$
>  <compound>
CN(Cc1nc(Cc2ccccc2)n(-c2ccc(S(N)(=O)=O)cc2F)n1)C1CCCCC1 [Example F-1aq]

>  <reported-property>
IC50

>  <units-label>
nM

>  <measured-result>
9.41

$$$$
>  <compound>
CCCCN(C)Cc1nc(Cc2ccccc2)n(-c2ccc(S(N)(=O)=O)cc2F)n1 [Example G-1b]

>  <reported-property>
IC50

>  <units-label>
nM

>  <measured-result>
9.01

$$$$
>  <compound>
C[C@@H]1CN(Cc2nc(Cc3ccccc3)n(-c3ccc(S(N)(=O)=O)cc3F)n2)C[C@H](C)O1 [Example F-1]

>  <reported-property>
IC50

>  <units-label>
nM

>  <measured-result>
26.1

$$$$

Report IC50 for each item below.
1. Cc1cccc(Cc2nc(CN(C)C3CCCC3)nn2-c2ccc(S(N)(=O)=O)cc2F)c1 [Example F-1ak]
2. NS(=O)(=O)c1ccc(-n2nc(CN3CC=CCC3)nc2Cc2cccc(Br)c2)cc1 [Example F-1z]
3. Cc1nc(Cc2cccc(F)c2)n(-c2ccc(S(N)(=O)=O)cc2)n1 [f-3a]

Result:
3.83
7.99
36.9

###

- study-system: human CA-IV (Homo sapiens, UniProt P22748)
- Construct: made in house; host or cells: Escherichia coli BL21(DE3)
- Sequence (P22748 19-284 limits assumed): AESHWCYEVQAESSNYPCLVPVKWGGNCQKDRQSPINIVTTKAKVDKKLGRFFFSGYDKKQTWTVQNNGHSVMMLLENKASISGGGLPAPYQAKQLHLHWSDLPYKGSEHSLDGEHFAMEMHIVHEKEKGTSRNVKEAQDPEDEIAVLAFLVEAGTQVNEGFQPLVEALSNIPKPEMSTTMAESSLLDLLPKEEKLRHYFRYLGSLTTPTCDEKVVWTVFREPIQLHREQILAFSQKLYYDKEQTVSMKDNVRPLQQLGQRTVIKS
- method-summary: Carbonic Anhydrase-IV (CA-IV) Fluorescence Polarization Assay-IC50 Determination
- Type: binding
- conditions-used: read-out: CA-IV IC50
Exercise: for every item that follows, state its recorded pIC50.
Give bare numbers, as −log10 of the molar value.

Below: 2 compounds and their reported pIC50.
>  <structure-notation>
CN(C)[C@H]1CCN(C(=O)c2nc(Cc3ccccc3)n(-c3ccc(S(N)(=O)=O)cc3)n2)C1

>  <study-system>
human CA-IV (Homo sapiens, UniProt P22748)

>  <measured-result>
6.42

$$$$
>  <structure-notation>
Cc1ccc(C)c(Cn2cc(C(F)(F)F)nc2-c2ccc(S(N)(=O)=O)cc2)c1

>  <study-system>
human CA-IV (Homo sapiens, UniProt P22748)

>  <measured-result>
6.89

$$$$

Report pIC50 for each item below.
1. Cc1cc(Cn2cc(C(F)(F)F)nc2-c2ccc(S(N)(=O)=O)cc2)ccc1F
2. NS(=O)(=O)c1ccc(-n2nc(C(=O)NCC3(c4ccccc4)CC3)nc2Cc2ccccc2)cc1

Result:
1: 6.51; 2: 6.69

###

Exercise: for every item that follows, state its recorded pIC50.
- study-system: human CA-IV (Homo sapiens)
- Construct: made in house; host or cells: Escherichia coli BL21(DE3)
- method-summary: Carbonic Anhydrase-IV (CA-IV) Fluorescence Polarization Assay-IC50 Determination
- Assay type: binding
- conditions-used: read-out: IC50_CAIV
- Procedure: Carbonic Anhydrase-IV (CA-IV) Fluorescence Polarization Assay-IC50 Determination These cells were grown in Luria broth (LB) media (Biomyx) supplemented with 800 uM ZnCl2 at 37° C. until an O.D.600 of 0.7, at which point the cells were induced with 100 uM isopropyl-beta-D-thiogalactopyranoside (IPTG) for 20 hours at 20° C. The frozen pellet was resuspended in 50mM 2-morpholinoethanesulfonic acid (MES) at pH 6.0, 100 mM NaCl, 800 uM ZnCl2 and EDTA-Free protease inhibitors (Roche). […]
One number for each entry, as −log10 of the molar value.

>  <structure-notation>
CN(CCN1CCOCC1)C(=O)c1nc(Cc2ccccc2)n(-c2ccc(S(N)(=O)=O)cc2F)n1

>  <measured-result>
6.83

$$$$

Could you now consider this next molecule?
Task: Request the reported pIC50 associated with `CCCN(C)Cc1cc(Cc2ccccc2)n(-c2ccc(S(N)(=O)=O)cc2F)n1`
Result: 6.52

###

Exercise: for every item that follows, state its recorded pIC50.
- study-system: human CA-II (Homo sapiens, UniProt P00918)
- Construct: purchased Sigma-Aldrich C6165
- method-summary: Carbonic Anhydrase-II (CA-II) Fluorimetric Assay-IC50 Determination
- Format: biochemical
- conditions-used: given instead of Kd (ND); read-out: CA-II IC50
Give bare numbers, as −log10 of the molar value.

Below: 3 molecules and their reported pIC50.
>  <molecule>
CC(C)CCN(C)C(=O)c1nc(Cc2ccccc2)n(-c2ccc(S(N)(=O)=O)cc2)n1 [Example R-31]

>  <study-system>
human CA-II (Homo sapiens, UniProt P00918)

>  <pIC50>
8.52

$$$$
>  <molecule>
NS(=O)(=O)c1ccc(-n2nc(C(=O)N3CCCC3Cc3cccnc3)nc2Cc2ccccc2)cc1 (stereo not shown) [Example R-68]

>  <study-system>
human CA-II (Homo sapiens, UniProt P00918)

>  <pIC50>
8.43

$$$$
>  <molecule>
Cc1ccc(CN(C)C(=O)c2nc(Cc3ccccc3)n(-c3ccc(S(N)(=O)=O)cc3)n2)cc1 [Example R-38]

>  <study-system>
human CA-II (Homo sapiens, UniProt P00918)

>  <pIC50>
8.50

$$$$

Report pIC50 for each item below.
1. CCN(CCOC)C(=O)c1nc(Cc2ccccc2)n(-c2ccc(S(N)(=O)=O)cc2)n1 [Example R-34]
2. CCCCN(CCC)C(=O)c1nc(Cc2ccccc2)n(-c2ccc(S(N)(=O)=O)cc2)n1 [Example R-36]
3. NS(=O)(=O)c1ccc(-n2nc(C(=O)N3CCC(c4cccnc4)C3)nc2Cc2ccccc2)cc1 (stereo not shown) [Example R-69]
4. CCN(CC)CCN(CC)C(=O)c1nc(Cc2ccccc2)n(-c2ccc(S(N)(=O)=O)cc2)n1 [Example R-39]
5. Cc1cc(C)n(CCN(C)C(=O)c2nc(Cc3ccccc3)n(-c3ccc(S(N)(=O)=O)cc3)n2)n1 [Example R-66]
6. NS(=O)(=O)c1ccc(-n2nc(C(=O)N3CCc4ccccc4C3)nc2Cc2ccccc2)cc1 [Example R-52]
7. CN(C(=O)c1nc(Cc2ccccc2)n(-c2ccc(S(N)(=O)=O)cc2)n1)C1CCCC1 [Example R-30]

Result:
[8.52, 8.51, 8.46, 8.44, 8.45, 8.55, 8.61]

Report pIC50 for each item below.
1. CC(C)CN(CC(C)C)C(=O)c1nc(Cc2ccccc2)n(-c2ccc(S(N)(=O)=O)cc2)n1 [Example R-40]
2. CCc1nc(CN(C)C(=O)c2nc(Cc3ccccc3)n(-c3ccc(S(N)(=O)=O)cc3)n2)no1 [Example R-70]
3. Cc1cc(CN(C)C(=O)c2nc(Cc3ccccc3)n(-c3ccc(S(N)(=O)=O)cc3)n2)on1 [Example R-64]
4. NS(=O)(=O)c1ccc(-n2nc(C(=O)N3CCCCC3Cc3ccccc3)nc2Cc2ccccc2)cc1 (stereo not shown) [Example R-53]

Result:
1: 8.48; 2: 8.51; 3: 8.53; 4: 8.47

Report pIC50 for each item below.
1. CN(CCOc1ccccc1)C(=O)c1nc(Cc2ccccc2)n(-c2ccc(S(N)(=O)=O)cc2)n1 [Example R-42]
2. NS(=O)(=O)c1ccc(-n2nc(C(=O)N3CCOCC3)nc2Cc2ccccc2)cc1 [Example R-32]

Result:
1: 8.42; 2: 8.45

###

- study-system: human CA-XII (Homo sapiens, UniProt O43570)
- Construct: made in house; host or cells: Escherichia coli AD494 (DE3)
- Sequence (O43570 30-289 limits assumed): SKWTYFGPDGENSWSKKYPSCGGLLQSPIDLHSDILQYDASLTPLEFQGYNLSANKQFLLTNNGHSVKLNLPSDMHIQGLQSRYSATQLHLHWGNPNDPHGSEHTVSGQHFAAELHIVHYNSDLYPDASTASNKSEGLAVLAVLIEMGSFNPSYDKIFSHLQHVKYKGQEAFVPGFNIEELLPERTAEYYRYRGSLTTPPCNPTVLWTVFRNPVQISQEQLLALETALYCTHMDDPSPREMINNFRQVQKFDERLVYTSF
- method-summary: Carbonic Anhydrase-XII (CA-XII) Fluorimetric Assay-IC50 Determination
- Format: biochemical
- conditions-used: read-out: % inh CAXII @ 1 uM
reported-property: inhibition at 1 µM (%)
Give bare numbers, in %.

>  <molecule>
CCOC(=O)c1nn(-c2ccc(S(N)(=O)=O)cc2)c2c1CNCC2 [EE-1g]

>  <measured-result>
31

$$$$

Report inhibition at 1 µM for each item below.
1. CCOC(=O)c1nc(Cc2ccccc2)n(-c2ccc(S(N)(=O)=O)cc2)n1 [a-4]
2. CCOC(=O)c1cc(C)n(-c2ccc(S(N)(=O)=O)cc2)n1 [GG-1]

Result:
[95, 51]

Report inhibition at 1 µM for each item below.
1. Cc1nc(C(=O)O)nn1-c1ncc(S(N)(=O)=O)cn1 [Example I-5b]
2. NS(=O)(=O)c1ccc(-n2nc(CN3CCOCC3)c3c2CCCC3)cc1 [II-1b]
3. Cc1cc(C(=O)N2CCN(C)CC2)nn1-c1ccc(S(N)(=O)=O)cn1 [MM-1c]
4. Cc1cc(C(=O)N(C)C)nn1-c1ccc(S(N)(=O)=O)cn1 [MM-1b]
5. NS(=O)(=O)c1ccc(-n2nc(C(=O)O)nc2Cc2ccccc2)cc1 [a-5]

Result:
46
89
86
96
99

Recorded values, source patent US20100256357A1.
